- protocol-details: Solubility measurements of polymorphic Form I and II in biorelevant fluids
- Format: physicochemical
- experimental-context: FeSSIF, 37 °C, thermodynamic from solid, 3 h
measurement-type: solubility at 3 h (µg/mL)
Record the value in µg/mL, omitting the unit from your answer.

Task item: Name the recorded solubility at 3 h of the item NC(=O)N1CCC[C@@H](N(C(=O)NCc2ccc(OC(F)(F)F)cc2F)C2CC2)C1 [Form II] in your answer.
Reply: 720

----------
- protocol-details: Solubility measurements of polymorphic Form I and II in biorelevant fluids
- Format: physicochemical
- experimental-context: 5% HPBCD/2% TPGS, 25 °C, aqueous with cosolvent or surfactant or cyclodextrin, thermodynamic from solid, 24 h
measurement-type: solubility at 24 h (µg/mL)
Quick note: give the figure in µg/mL, leave out the unit.

Task item: Return solubility at 24 h (reported value) for this compound: NC(=O)N1CCC[C@@H](N(C(=O)NCc2ccc(OC(F)(F)F)cc2F)C2CC2)C1 [Form I]
Reply: 5280
